Parameter pIC50: see the listing below.
# ASSAYED_SYSTEM: TLR8 (Homo sapiens, UniProt Q9NR97)
# Sequence (Q9NR97 27-1041): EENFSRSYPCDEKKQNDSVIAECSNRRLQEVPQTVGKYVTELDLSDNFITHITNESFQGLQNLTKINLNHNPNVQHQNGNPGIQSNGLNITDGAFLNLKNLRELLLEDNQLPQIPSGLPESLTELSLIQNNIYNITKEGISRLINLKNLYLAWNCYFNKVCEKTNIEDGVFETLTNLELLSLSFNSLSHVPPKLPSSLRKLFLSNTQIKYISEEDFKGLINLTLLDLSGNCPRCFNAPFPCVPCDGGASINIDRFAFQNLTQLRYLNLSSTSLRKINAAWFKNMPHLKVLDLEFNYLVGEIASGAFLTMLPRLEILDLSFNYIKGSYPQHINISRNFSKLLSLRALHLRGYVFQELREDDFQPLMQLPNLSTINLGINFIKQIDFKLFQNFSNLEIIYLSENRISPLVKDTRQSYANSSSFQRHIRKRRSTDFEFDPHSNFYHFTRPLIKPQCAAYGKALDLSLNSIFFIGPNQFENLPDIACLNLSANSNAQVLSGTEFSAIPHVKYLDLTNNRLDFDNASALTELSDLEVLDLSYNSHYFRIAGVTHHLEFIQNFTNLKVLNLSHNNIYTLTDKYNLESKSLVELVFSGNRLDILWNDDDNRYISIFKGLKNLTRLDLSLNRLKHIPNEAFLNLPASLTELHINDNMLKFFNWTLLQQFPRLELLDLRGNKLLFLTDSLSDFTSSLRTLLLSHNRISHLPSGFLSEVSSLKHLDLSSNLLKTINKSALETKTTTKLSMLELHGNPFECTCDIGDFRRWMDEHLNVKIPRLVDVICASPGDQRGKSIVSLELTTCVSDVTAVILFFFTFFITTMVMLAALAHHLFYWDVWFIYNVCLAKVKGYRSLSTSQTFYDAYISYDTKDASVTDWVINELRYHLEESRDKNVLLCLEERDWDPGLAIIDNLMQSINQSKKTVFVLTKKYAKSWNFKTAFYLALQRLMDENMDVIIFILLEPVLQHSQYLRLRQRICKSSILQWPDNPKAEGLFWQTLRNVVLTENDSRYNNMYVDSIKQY
# MEASUREMENT_PROTOCOL: HEK/293 TLR8 Cell Assay
# CONDITION_CONTEXT: HEK cells, R848 agonist 30 uM final concentration, Steady-Glo readout; read-out: TLR8 potency
pIC50: −log10 of the molar value.
ATTRIBUTE_MEASURED: pIC50

[[record]]
compound = "C[C@H]1C[C@@H](NC(=O)[C@H]2CCCN2)CN(c2ccc(C#N)c3nccnc23)C1"
attribute_measured = "pIC50"
test_value = "6.82 to 7.12"

[[record]]
compound = "C[C@H]1C[C@@H](NC(=O)CCN)CN(c2ccc(C(F)(F)F)c3ncccc23)C1"
attribute_measured = "pIC50"
test_value = "> 7.12"

[[record]]
compound = "C[C@@H]1CN(c2ccc(C#N)c3nccnc23)C[C@H](CN2CCC(C(C)(C)O)C2)O1 (stereo partly shown)"
attribute_measured = "pIC50"
test_value = "6.82 to 7.12"

[[record]]
compound = "CCN(CC)C1CCN(C[C@H]2CN(c3ccc(C#N)c4nccnc34)C[C@@H](C)O2)CC1"
attribute_measured = "pIC50"
test_value = "> 7.12"

[[record]]
compound = "CC(C(=O)N[C@@H]1C[C@H](C)CN(c2ccc(C(F)(F)F)c3ncccc23)C1)N1CCC(O)CC1 (single isomer, unassigned)"
attribute_measured = "pIC50"
test_value = "> 7.12"

[[record]]
compound = "N#Cc1ccc(N2C[C@@H](C(F)(F)F)O[C@@H](C(=O)NC[C@]3(F)CCNC3)C2)c2nccnc12 (single isomer, unassigned)"
attribute_measured = "pIC50"
test_value = "> 7.12"

[[record]]
compound = "C[C@H]1C[C@@H](NC(=O)CC2(N)CC2)CN(c2ccc(C#N)c3nccnc23)C1"
attribute_measured = "pIC50"
test_value = "> 7.12"

[[record]]
compound = "N#Cc1ccc(N2C[C@H](NC(=O)[C@@H]3CCCN3)C[C@H](C(F)(F)F)C2)c2nccnc12"
attribute_measured = "pIC50"
test_value = "> 7.12"

[[record]]
compound = "C[C@@H]1CN(c2ccc(C#N)c3ncncc23)C[C@H](C(=O)NC2CCC(N3CCOCC3)CC2)O1 (stereo partly shown)"
attribute_measured = "pIC50"
test_value = "> 7.12"

[[record]]
compound = "C[C@@H]1CN(c2ccc(C#N)c3ncncc23)C[C@H](CN2CCN(C)CC2)O1"
attribute_measured = "pIC50"
test_value = "< 6.82"

[[record]]
compound = "CN1CCC(F)(CNC(=O)[C@@H]2CN(c3cnc(C#N)c4ncccc34)C[C@H](C(F)(F)F)O2)CC1 (single isomer, unassigned)"
attribute_measured = "pIC50"
test_value = "> 7.12"

[[record]]
compound = "C[C@H]1C[C@@H](NCCC(=O)NC2CS(=O)(=O)C2)CN(c2ccc(C(F)(F)F)c3ncccc23)C1"
attribute_measured = "pIC50"
test_value = "> 7.12"

[[record]]
compound = "C[C@H]1C[C@@H](NC(=O)[C@@H](C)N2CCC(O)CC2)CN(c2ccc(C#N)c3nccnc23)C1 (single isomer, unassigned)"
attribute_measured = "pIC50"
test_value = "> 7.12"


###

# ASSAYED_SYSTEM: TLR7 (Homo sapiens, UniProt Q9NYK1)
# Sequence (Q9NYK1 27-1049): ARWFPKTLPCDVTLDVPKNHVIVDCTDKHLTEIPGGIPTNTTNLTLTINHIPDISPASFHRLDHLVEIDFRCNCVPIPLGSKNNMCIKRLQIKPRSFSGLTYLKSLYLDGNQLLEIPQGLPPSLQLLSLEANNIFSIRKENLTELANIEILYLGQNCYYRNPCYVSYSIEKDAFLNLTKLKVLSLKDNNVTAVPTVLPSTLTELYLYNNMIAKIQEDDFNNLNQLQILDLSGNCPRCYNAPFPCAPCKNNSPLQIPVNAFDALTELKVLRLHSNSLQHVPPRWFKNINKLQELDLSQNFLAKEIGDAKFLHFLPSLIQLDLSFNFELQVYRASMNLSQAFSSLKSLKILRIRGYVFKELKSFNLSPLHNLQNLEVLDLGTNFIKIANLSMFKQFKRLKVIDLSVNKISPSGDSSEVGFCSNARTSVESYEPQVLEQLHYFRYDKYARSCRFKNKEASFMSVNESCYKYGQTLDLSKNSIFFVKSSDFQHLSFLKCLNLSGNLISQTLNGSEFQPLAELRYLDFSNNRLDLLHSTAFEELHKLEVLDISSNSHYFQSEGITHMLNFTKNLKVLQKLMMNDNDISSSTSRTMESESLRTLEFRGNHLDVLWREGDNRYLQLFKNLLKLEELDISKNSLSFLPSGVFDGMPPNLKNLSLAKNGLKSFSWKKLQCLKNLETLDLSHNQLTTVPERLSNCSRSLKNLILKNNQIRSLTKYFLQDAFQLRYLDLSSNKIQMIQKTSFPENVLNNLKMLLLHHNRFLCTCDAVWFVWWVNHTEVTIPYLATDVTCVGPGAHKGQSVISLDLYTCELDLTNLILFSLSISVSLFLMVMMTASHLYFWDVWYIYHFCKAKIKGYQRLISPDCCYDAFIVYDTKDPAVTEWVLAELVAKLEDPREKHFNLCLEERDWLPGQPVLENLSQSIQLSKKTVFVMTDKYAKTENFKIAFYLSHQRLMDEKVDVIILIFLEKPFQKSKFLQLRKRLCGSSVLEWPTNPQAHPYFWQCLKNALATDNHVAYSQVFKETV
# MEASUREMENT_PROTOCOL: HEK/293 TLR7 Cell Assay
# CONDITION_CONTEXT: TLR7/NFKb HEK cells, R848 agonist 10 uM final concentration, Steady-Glo readout; read-out: TLR7 potency
Structures can show the parent of a compound that is named as a salt.
The following compounds are listed with their measured IC50 values.
ATTRIBUTE_MEASURED: IC50

[[record]]
compound = "C[C@H]1C[C@@H](NCC(O)CO)CN(c2cnc(C#N)c3ncccc23)C1 (some centres unmarked)"
test_value = "> 150 nM"

[[record]]
compound = "C[C@@H]1CN(c2ccc(C#N)c3nccnc23)C[C@H](C(=O)NC[C@H]2COCCN2C)O1 (single isomer, unassigned)"
test_value = "< 75 nM"

[[record]]
compound = "C[C@@H]1CN(c2ccc(C#N)c3nccnc23)C[C@H](CN2CC(O)C2)O1"
test_value = "< 75 nM"

[[record]]
compound = "C[C@H]1C[C@@H](NC(=O)[C@H](O)CO)CN(c2ccc(C#N)c3nccnc23)C1"
test_value = "< 75 nM"

[[record]]
compound = "C[C@@H]1CN(c2cnc(C#N)c3ncccc23)C[C@H](CNC(=O)[C@]2(F)CCN(C)C2)O1 (single isomer, unassigned)"
test_value = "75 to 150 nM"

[[record]]
compound = "C[C@H]1C[C@@H](N)CN(c2cnc(C#N)c3nccnc23)C1 [Example 187, hydrochloride]"
test_value = "< 75 nM"

[[record]]
compound = "C[C@H]1C[C@@H](NC(=O)C2(F)CCNC2)CN(c2ccc(C(F)(F)F)c3ncccc23)C1 (some centres unmarked)"
test_value = "< 75 nM"

[[record]]
compound = "C[C@@H]1CN(c2cnc(C#N)c3ncccc23)C[C@H](CN2CCN(C)CC2)O1"
test_value = "< 75 nM"

[[record]]
compound = "C[C@H]1C[C@@H](NC(=O)CC2(O)CCN(C)CC2)CN(c2ccc(C(F)(F)F)c3nccnc23)C1 [Example 80, hydrochloride]"
test_value = "< 75 nM"

[[record]]
compound = "C[C@@H]1CN(c2ccc(C#N)c3ncncc23)C[C@H](CNC(=O)C2(F)CCNC2)O1 (some centres unmarked)"
test_value = "< 75 nM"

[[record]]
compound = "C[C@@H]1CN(c2cnc(C#N)c3ncccc23)C[C@H](C(=O)NC[C@H]2CCCN2C)O1"
test_value = "< 75 nM"

[[record]]
compound = "N#Cc1ccc(N2C[C@@H](C(=O)N3C[C@@H](N)C4(CC4)C3)O[C@@H](C(F)(F)F)C2)c2nccnc12 (single isomer, unassigned)"
test_value = "< 75 nM"

[[record]]
compound = "C[C@@H]1CN(c2cnc(C#N)c3ncccc23)C[C@H](CN2CCN(S(N)(=O)=O)CC2)O1"
test_value = "> 150 nM"

[[record]]
compound = "C[C@H]1C[C@@H](NCCC(N)=O)CN(c2ccc(C(F)(F)F)c3nccnc23)C1"
test_value = "< 75 nM"

[[record]]
compound = "C[C@H]1C[C@@H](NC(=O)CN2CCN(C)CC2)CN(c2cnc(C#N)c3nccnc23)C1"
test_value = "< 75 nM"

[[record]]
compound = "C[C@@H]1CN(c2ccc(C#N)c3ncncc23)C[C@H](C(=O)NC2CCN(C)C3(CCC3)C2)O1 (some centres unmarked)"
test_value = "< 75 nM"

[[record]]
compound = "C[C@H]1C[C@@H](OCCN2CCCCC2)CN(c2ccc(C(F)(F)F)c3ncccc23)C1 (racemic)"
test_value = "> 150 nM"

[[record]]
compound = "C[C@@H]1CN(c2cnc(C(F)(F)F)c3ncccc23)C[C@H](CNC[C@H]2CN(C)CCO2)O1 (single isomer, unassigned)"
test_value = "> 150 nM"

[[record]]
compound = "C[C@@H]1CN(c2ccc(C#N)c3nccnc23)C[C@H](C(=O)NCC2CS(=O)(=O)C2)O1"
test_value = "< 75 nM"

[[record]]
compound = "C[C@H]1C[C@@H](NC(=O)C2CCNCC2)CN(c2ccc(C(F)(F)F)c3ncccc23)C1"
test_value = "< 75 nM"

[[record]]
compound = "C[C@H]1C[C@@H](OCCN2CCN(C)CC2)CN(c2ccc(C(F)(F)F)c3ncccc23)C1 (racemic)"
test_value = "< 75 nM"

[[record]]
compound = "CN1CCN(CC(=O)N[C@@H]2C[C@H](C(F)(F)F)CN(c3ccc(C(F)(F)F)c4ncccc34)C2)CC1"
test_value = "< 75 nM"

[[record]]
compound = "C[C@H]1C[C@@H](NC(=O)CCN2CCOCC2)CN(c2ccc(C#N)c3nccnc23)C1"
test_value = "75 to 150 nM"

[[record]]
compound = "CC(C)(O)CNC(=O)[C@H]1CN(c2ccc(C#N)c3nccnc23)C[C@@H](C(F)(F)F)O1 (single isomer, unassigned)"
test_value = "< 75 nM"

[[record]]
compound = "CC(=O)N1CCC(NC(=O)[C@H]2CN(c3ccc(C#N)c4nccnc34)C[C@@H](C)O2)CC1"
test_value = "< 75 nM"

[[record]]
compound = "C[C@@H]1CN(c2ccc(C#N)c3nccnc23)C[C@H](CN2CCC(O)CC2)O1"
test_value = "75 to 150 nM"


Cited source for all entries: patent US20210300940A1
